The reported measurements were obtained from ChEMBL document CHEMBL5038608.

Assay comment: Microsomal stability in human liver microsomes assessed as half life at 1 uM preincubated for 5 mins followed by NADPH regenerating system addition measured after 30 mins by LC-MS/MS analysis
Assay type: ADME, Microsome
Reported conditions: t1/2, time 35 min
Test readout: half-life at 1 µM (h)

O=C(Nc1ccc(Br)cc1)NC1CCN(c2cnn(-c3ccccc3)c2)C1=O (stereo unspecified) | 3.48
O=C(Nc1ccc(Br)cc1)NC1CCN(CC2CCNCC2)C1=O (stereo unspecified) | 6.35
CC(NC(=O)NC1CCN(c2ccccc2)C1=O)c1ccncc1 (stereo unspecified) | 6.83
CC(C)n1cc(N2CCC(NC(=O)Nc3ccc(Br)cc3)C2=O)cn1 (stereo unspecified) | 5.37
CC(NC(=O)NC1CC(C)N(c2ccccc2)C1=O)c1ccncc1 (stereo unspecified) | 8.42

[1] Cn1cc(N2CCC(NC(=O)NCc3cc(F)cc(F)c3)C2=O)cn1 (stereo unspecified)
[2] CC(C)(C)OC(=O)N1CCC(CN2CCC(NC(=O)Nc3ccc(Br)cc3)C2=O)CC1 (stereo unspecified)
[3] COc1ccc(CNC(=O)NC2CCN(c3ccccc3)C2=O)cc1 (stereo unspecified)
[4] Cc1nn(C)cc1N1CCC(NC(=O)Nc2ccc(Br)cc2)C1=O (stereo unspecified)
[5] O=C(Nc1ccc(Br)cc1)NC1CCN(C2CCN(c3ncccn3)CC2)C1=O (stereo unspecified)
Q. List items by half-life at 1 µM in falling order. // rank by listing labels in the order requested
A. 1, 3, 4, 5, 2
(1: 9.73 h, 3: 5.48 h, 4: 3.05 h, 5: 0.95 h, 2: 0.317 h)
